Conditions used: in water, 318.15 K

Line notation: CC(C)(C)OC(=O)N[C@@H](CCC(N)=O)C(=O)O
solubility (mole fraction): 0.0905

---

Conditions used: in methyl acetate, 318.15 K

Line notation: CC(C)(C)OC(=O)N[C@@H](CCC(N)=O)C(=O)O
solubility (mole fraction): 0.0393

---

Conditions used: in isobutanol, 283.15 K
Metric: solubility (mole fraction)

Line notation: CC(C)(C)OC(=O)N[C@@H](CCC(N)=O)C(=O)O
Metric: solubility (mole fraction)
Result: 0.0317

---

Conditions used: in isopropanol, 313.15 K

Line notation: CC(C)(C)OC(=O)N[C@@H](CCC(N)=O)C(=O)O
solubility (mole fraction): 0.153

---

Conditions used: in acetonitrile, 313.15 K
Metric: solubility (mole fraction)

Line notation: CC(C)(C)OC(=O)N[C@@H](CCC(N)=O)C(=O)O
Numeric readout: 0.0165

---

Conditions used: in acetone, 298.15 K

Line notation: CC(C)(C)OC(=O)N[C@@H](CCC(N)=O)C(=O)O
solubility (mole fraction): 0.0959

---

Conditions used: in acetone, 283.15 K

Line notation: CC(C)(C)OC(=O)N[C@@H](CCC(N)=O)C(=O)O
solubility (mole fraction): 0.0586

---

Conditions used: in ethanol, 293.15 K

Line notation: CC(C)(C)OC(=O)N[C@@H](CCC(N)=O)C(=O)O
solubility (mole fraction): 0.148

---

Conditions used: in n-pentanol, 303.15 K

Line notation: CC(C)(C)OC(=O)N[C@@H](CCC(N)=O)C(=O)O
solubility (mole fraction): 0.0481

---

Conditions used: in isopropanol, 303.15 K

Line notation: CC(C)(C)OC(=O)N[C@@H](CCC(N)=O)C(=O)O
solubility (mole fraction): 0.108

---

Conditions used: in 2-butanone, 293.15 K
Metric: solubility (mole fraction)

Line notation: CC(C)(C)OC(=O)N[C@@H](CCC(N)=O)C(=O)O
Result: 0.0247

---

Conditions used: in n-butanol, 303.15 K

Line notation: CC(C)(C)OC(=O)N[C@@H](CCC(N)=O)C(=O)O
solubility (mole fraction): 0.0748

---

Conditions used: in acetone, 318.15 K

Line notation: CC(C)(C)OC(=O)N[C@@H](CCC(N)=O)C(=O)O
solubility (mole fraction): 0.168

---

Conditions used: in ethyl acetate, 318.15 K
Metric: solubility (mole fraction)

Line notation: CC(C)(C)OC(=O)N[C@@H](CCC(N)=O)C(=O)O
Numeric readout: 0.0102

---

Conditions used: in water, 288.15 K

Line notation: CC(C)(C)OC(=O)N[C@@H](CCC(N)=O)C(=O)O
solubility (mole fraction): 0.00807

---

Conditions used: in 2-butanone, 318.15 K

Line notation: CC(C)(C)OC(=O)N[C@@H](CCC(N)=O)C(=O)O
solubility (mole fraction): 0.068

---

Conditions used: in isopropanol, 298.15 K
Metric: solubility (mole fraction)

Line notation: CC(C)(C)OC(=O)N[C@@H](CCC(N)=O)C(=O)O
Metric: solubility (mole fraction)
Numeric readout: 0.0922

---

Conditions used: in water, 283.15 K
Metric: solubility (mole fraction)

Line notation: CC(C)(C)OC(=O)N[C@@H](CCC(N)=O)C(=O)O
Numeric readout: 0.00718

---

Conditions used: in ethanol, 298.15 K

Line notation: CC(C)(C)OC(=O)N[C@@H](CCC(N)=O)C(=O)O
solubility (mole fraction): 0.155

---

Conditions used: in n-propanol, 293.15 K

Line notation: CC(C)(C)OC(=O)N[C@@H](CCC(N)=O)C(=O)O
solubility (mole fraction): 0.0803

---

Conditions used: in isopropanol, 308.15 K
Metric: solubility (mole fraction)

Line notation: CC(C)(C)OC(=O)N[C@@H](CCC(N)=O)C(=O)O
Result: 0.124

---

Conditions used: in 2-butanone, 298.15 K
Metric: solubility (mole fraction)

Line notation: CC(C)(C)OC(=O)N[C@@H](CCC(N)=O)C(=O)O
Metric: solubility (mole fraction)
Numeric readout: 0.0294

---

Conditions used: in acetone, 303.15 K

Line notation: CC(C)(C)OC(=O)N[C@@H](CCC(N)=O)C(=O)O
solubility (mole fraction): 0.105

---

Conditions used: in ethanol, 313.15 K

Line notation: CC(C)(C)OC(=O)N[C@@H](CCC(N)=O)C(=O)O
solubility (mole fraction): 0.191

---

Conditions used: in n-propanol, 298.15 K
Metric: solubility (mole fraction)

Line notation: CC(C)(C)OC(=O)N[C@@H](CCC(N)=O)C(=O)O
Numeric readout: 0.0938

---

Conditions used: in acetonitrile, 308.15 K

Line notation: CC(C)(C)OC(=O)N[C@@H](CCC(N)=O)C(=O)O
solubility (mole fraction): 0.0113

---

Conditions used: in n-pentanol, 308.15 K

Line notation: CC(C)(C)OC(=O)N[C@@H](CCC(N)=O)C(=O)O
solubility (mole fraction): 0.0573

---

Conditions used: in n-propanol, 283.15 K

Line notation: CC(C)(C)OC(=O)N[C@@H](CCC(N)=O)C(=O)O
solubility (mole fraction): 0.057

---

Conditions used: in water, 293.15 K
Metric: solubility (mole fraction)

Line notation: CC(C)(C)OC(=O)N[C@@H](CCC(N)=O)C(=O)O
Numeric readout: 0.00935

---

Conditions used: in n-propanol, 288.15 K

Line notation: CC(C)(C)OC(=O)N[C@@H](CCC(N)=O)C(=O)O
solubility (mole fraction): 0.0698

---

Conditions used: in n-propanol, 318.15 K

Line notation: CC(C)(C)OC(=O)N[C@@H](CCC(N)=O)C(=O)O
solubility (mole fraction): 0.207

---

Conditions used: in methyl acetate, 313.15 K

Line notation: CC(C)(C)OC(=O)N[C@@H](CCC(N)=O)C(=O)O
solubility (mole fraction): 0.0254

---

Conditions used: in n-propanol, 308.15 K

Line notation: CC(C)(C)OC(=O)N[C@@H](CCC(N)=O)C(=O)O
solubility (mole fraction): 0.135

---

Conditions used: in isobutanol, 303.15 K

Line notation: CC(C)(C)OC(=O)N[C@@H](CCC(N)=O)C(=O)O
solubility (mole fraction): 0.0676

---

Conditions used: in isobutanol, 288.15 K

Line notation: CC(C)(C)OC(=O)N[C@@H](CCC(N)=O)C(=O)O
solubility (mole fraction): 0.0398

---

Conditions used: in n-butanol, 288.15 K

Line notation: CC(C)(C)OC(=O)N[C@@H](CCC(N)=O)C(=O)O
solubility (mole fraction): 0.0487

---

Conditions used: in acetonitrile, 323.15 K
Metric: solubility (mole fraction)

Line notation: CC(C)(C)OC(=O)N[C@@H](CCC(N)=O)C(=O)O
Numeric readout: 0.0356

---

Conditions used: in acetonitrile, 293.15 K
Metric: solubility (mole fraction)

Line notation: CC(C)(C)OC(=O)N[C@@H](CCC(N)=O)C(=O)O
Metric: solubility (mole fraction)
Numeric readout: 0.00493

---

Conditions used: in 2-butanone, 303.15 K

Line notation: CC(C)(C)OC(=O)N[C@@H](CCC(N)=O)C(=O)O
solubility (mole fraction): 0.035

---

Conditions used: in ethanol, 303.15 K

Line notation: CC(C)(C)OC(=O)N[C@@H](CCC(N)=O)C(=O)O
solubility (mole fraction): 0.165

---

Conditions used: in n-propanol, 313.15 K
Metric: solubility (mole fraction)

Line notation: CC(C)(C)OC(=O)N[C@@H](CCC(N)=O)C(=O)O
Metric: solubility (mole fraction)
Numeric readout: 0.162

---

Conditions used: in methyl acetate, 308.15 K

Line notation: CC(C)(C)OC(=O)N[C@@H](CCC(N)=O)C(=O)O
solubility (mole fraction): 0.0173

---

Conditions used: in n-pentanol, 283.15 K
Metric: solubility (mole fraction)

Line notation: CC(C)(C)OC(=O)N[C@@H](CCC(N)=O)C(=O)O
Numeric readout: 0.0343

---

Conditions used: in 2-butanone, 308.15 K
Metric: solubility (mole fraction)

Line notation: CC(C)(C)OC(=O)N[C@@H](CCC(N)=O)C(=O)O
Metric: solubility (mole fraction)
Numeric readout: 0.0408

---

Conditions used: in n-pentanol, 293.15 K

Line notation: CC(C)(C)OC(=O)N[C@@H](CCC(N)=O)C(=O)O
solubility (mole fraction): 0.0382

---

Conditions used: in n-pentanol, 313.15 K

Line notation: CC(C)(C)OC(=O)N[C@@H](CCC(N)=O)C(=O)O
solubility (mole fraction): 0.07

---

Conditions used: in isobutanol, 293.15 K
Metric: solubility (mole fraction)

Line notation: CC(C)(C)OC(=O)N[C@@H](CCC(N)=O)C(=O)O
Metric: solubility (mole fraction)
Numeric readout: 0.0479

---

Conditions used: in methyl acetate, 303.15 K

Line notation: CC(C)(C)OC(=O)N[C@@H](CCC(N)=O)C(=O)O
solubility (mole fraction): 0.0115

---

Conditions used: in 2-butanone, 323.15 K

Line notation: CC(C)(C)OC(=O)N[C@@H](CCC(N)=O)C(=O)O
solubility (mole fraction): 0.0995
